Provide the recorded relative binding ratio (IC50 of standard peptide / IC50 of test peptide) for the entries that follow.
- assayed system: HLA-A*2401 (purified HLA class I molecule) (human)
- test method notes: competition with 125I-labelled standard peptide for purified HLA, gel filtration
Write the value as a bare number.

Given the entry LFPPEGVSI [PAP position 123, 9 amino acids] , report its measured relative binding ratio (IC50 of standard peptide / IC50 of test peptide).
0.0033

Given the entry PYKDFIATL [PAP position 183, 9 amino acids] , report its measured relative binding ratio (IC50 of standard peptide / IC50 of test peptide).
0.11

Given the entry SYKHEQVYI [PAP position 96, 9 amino acids] , report its measured relative binding ratio (IC50 of standard peptide / IC50 of test peptide).
0.26
